Values from ChEMBL document CHEMBL4033645

test system: A549; test: Cytotoxicity against human A549 cells assessed as decrease in cell viability after 72 hrs by MTT assay; assay type: functional, cell-based; conditions: A549, 72 h
Each entry below lists one item and its recorded pIC50 value.
Please express pIC50 as -log10 of the molar concentration.

Illustrative cases are given below, each with its answer.
1) CN(C)C/C=C/C(=O)Nc1cc2c(Nc3ccc(F)c(Cl)c3)ncnc2cc1O[C@H]1CCOC1    5.85
2) O=C(N/N=C/c1cccc(Br)c1)Nc1cc2c(Nc3ccc(F)c(Cl)c3)ncnc2cc1O[C@H]1CCOC1    4.97
3) COc1cc(/C=N/NC(=O)Nc2cc3c(Nc4ccc(F)c(Cl)c4)ncnc3cc2O[C@H]2CCOC2)cc(OC)c1OC    4.58

Look up pIC50 for this compound: COc1cc2ncnc(Nc3ccc(F)c(Cl)c3)c2cc1NC(=O)N/N=C/c1ccc([N+](=O)[O-])cc1
4.45

Fill in: pIC50 of COc1cc2ncnc(Nc3ccc(F)c(Cl)c3)c2cc1NC(=O)N/N=C/c1ccc(C#N)cc1 is ___
4.49

I'd like to know its pIC50. The compound in question is COc1cc2ncnc(Nc3ccc(F)c(Cl)c3)c2cc1NC(=O)N/N=C/c1ccc(F)cc1
4.58

Which pIC50 value belongs to COc1cc2ncnc(Nc3ccc(F)c(Cl)c3)c2cc1NC(=O)N/N=C/c1ccc(OC)c(OC)c1OC ?
4.48

Please give the measured pIC50 for this compound: COc1cc2ncnc(Nc3ccc(F)c(Cl)c3)c2cc1NC(=O)N/N=C/c1cccc(Br)c1
4.55

What value of pIC50 has been reported for the following compound? COc1cc2ncnc(Nc3ccc(F)c(Cl)c3)c2cc1NC(=O)N/N=C/c1ccc(O)c(Br)c1
4.54
